test system: Bacillus subtilis; assay: Agar well diffusion; format: cell-based; settings: 20 µg/mL, read-out: Inhibition Zone
resultType: zone of inhibition at 20 µg/mL (mm)
Answers are plain numbers, in mm.

Hi team, please reply with zone of inhibition at 20 µg/mL for each item in this list.
1. Cc1ccc(NC(=O)N2CCOCC2)cc1 [Compound 15, N-(p-tolyl)morpholine-4-carboxamide]
2. O=C(Nc1ccccc1)N1CCCC1 [Compound 19, N-phenylpyrrolidine-1-carboxamide]
3. Cc1ccc(S(=O)(=O)NC(=O)N2CCCC2)cc1 [Compound 9, N-tosylpyrrolidine-1-carboxamide]
4. Cc1ccc(NC(=O)N2CCN(C)CC2)cc1
5. Cc1ccc(NC(=O)N2CCCC2)cc1 [Compound 14, N-(p-tolyl)pyrrolidine-1-carboxamide]
6. Cc1ccc(NC(=O)NC23CC4CC(CC(C4)C2)C3)cc1
7. O=C(Nc1ccccc1)N1CCCCC1 [Compound 22, N-phenylpiperidine-1-carboxamide]

A.
1. 2
2. 2
3. 6
4. 2
5. 4
6. 2
7. 5

For reference, reported zone of inhibition at 20 µg/mL for Cc1ccc(NC(=O)N2CCCCC2)cc1 [Compound 17, N-(p-tolyl)piperidine-1-carboxamide] stands at 5

====

experiment: MTT cytotoxicity assay; type: cell-based, human; settings: human, BJ-1 normal cells
resultType: cytotoxicity at 48 h, 100 µM (%)
Give bare numbers, in %.

For reference, reported cytotoxicity at 48 h, 100 µM for CN1CCN(C(=O)Nc2ccccc2)CC1 stands at 38.9

====

For each record, write down the corresponding melting point.

Some entries whose results are on file:
Cc1ccc(S(=O)(=O)NC(=O)N2CCN(C)CC2)cc1 [Compound 11, 4-Methyl-N-tosylpiperazine-1-carboxamide] :: 190 to 192 °C
Cc1ccc(NC(=O)NC23CC4CC(CC(C4)C2)C3)cc1 :: 180 to 182 °C
Cc1ccc(S(=O)(=O)NC(=O)N2CCCC2)cc1 [Compound 9, N-tosylpyrrolidine-1-carboxamide] :: 228 to 230 °C
CN1CCN(C(=O)Nc2ccccc2)CC1 :: 128 to 130 °C
Cc1ccc(NC(=O)N2CCCCC2)cc1 [Compound 17, N-(p-tolyl)piperidine-1-carboxamide] :: 230 to 232 °C

Hi team, please reply with melting point for each item in this list.
1. Cc1ccc(S(=O)(=O)NC(=O)N2CCCCC2)cc1 [Compound 12, N-tosylpiperidine-1-carboxamide]
2. Cc1ccc(S(=O)(=O)NC(=O)N2CCOCC2)cc1 [Compound 10, N-tosylmorpholine-4-carboxamide]
3. Cc1ccc(NC(=O)N2CCCC2)cc1 [Compound 14, N-(p-tolyl)pyrrolidine-1-carboxamide]
4. Cc1ccc(NC(=O)N2CCN(C)CC2)cc1

A.
["232 to 235 °C", "210 to 211 °C", "180 to 182 °C", "252 to 253 °C"]

====

For each record, write down the corresponding zone of inhibition at 20 µg/mL.
tested on: Bacillus subtilis; test: Agar well diffusion; type: cell-based; settings: 20 µg/mL, read-out: Inhibition Zone

Cc1ccc(S(=O)(=O)NC(=O)N2CCOCC2)cc1 [Compound 10, N-tosylmorpholine-4-carboxamide] :: 2 mm
Cc1ccc(S(=O)(=O)NC(=O)NC23CC4CC(CC(C4)C2)C3)cc1 :: 6 mm

Hi team, please reply with zone of inhibition at 20 µg/mL for each item in this list.
1. O=C(Nc1ccccc1)NC12CC3CC(CC(C3)C1)C2
2. O=C(Nc1ccccc1)N1CCOCC1 [Compound 20, N-phenylmorpholine-4-carboxamide]

A.
1. 3 mm
2. 2 mm

====

For each record, write down the corresponding cytotoxicity at 48 h, 100 µM.
test: MTT cytotoxicity assay; format: cell-based, human; conditions: human, BJ-1 normal skin fibroblast cells, BJ-1 normal cells
Give bare numbers, in %.

Cc1ccc(S(=O)(=O)NC(=O)N2CCOCC2)cc1 [Compound 10, N-tosylmorpholine-4-carboxamide] :: 19.7

For reference, reported cytotoxicity at 48 h, 100 µM for Cc1ccc(S(=O)(=O)NC(=O)NC23CC4CC(CC(C4)C2)C3)cc1 stands at 2.7

====

For each record, write down the corresponding melting point.

O=C(Nc1ccccc1)N1CCCC1 [Compound 19, N-phenylpyrrolidine-1-carboxamide] :: 233 to 235 °C
O=C(Nc1ccccc1)N1CCCCC1 [Compound 22, N-phenylpiperidine-1-carboxamide] :: 190 to 192 °C

// next item, melting point requested
For reference, reported melting point for Cc1ccc(NC(=O)N2CCOCC2)cc1 [Compound 15, N-(p-tolyl)morpholine-4-carboxamide] stands at 165 to 167 °C
